# test_target: Amine oxidase [flavin-containing] A (Homo sapiens)
# Sequence (P21397 whole entry): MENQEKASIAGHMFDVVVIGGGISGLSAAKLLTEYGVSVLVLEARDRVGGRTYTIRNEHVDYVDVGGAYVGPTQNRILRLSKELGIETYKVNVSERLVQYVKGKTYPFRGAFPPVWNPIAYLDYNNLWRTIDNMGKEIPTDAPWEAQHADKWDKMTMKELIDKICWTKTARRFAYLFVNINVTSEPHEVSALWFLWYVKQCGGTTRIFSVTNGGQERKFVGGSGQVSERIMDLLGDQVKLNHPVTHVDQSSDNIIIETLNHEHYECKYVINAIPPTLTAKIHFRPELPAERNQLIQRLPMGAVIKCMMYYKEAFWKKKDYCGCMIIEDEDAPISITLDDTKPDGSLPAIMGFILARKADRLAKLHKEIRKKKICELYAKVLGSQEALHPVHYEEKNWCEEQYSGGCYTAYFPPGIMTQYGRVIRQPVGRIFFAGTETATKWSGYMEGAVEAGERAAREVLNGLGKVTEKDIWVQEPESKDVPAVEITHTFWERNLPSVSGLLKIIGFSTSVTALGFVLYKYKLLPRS
# reported IC50; entries follow
property_label: IC50

>>> reported_result("CC(=O)c1ccc(OCc2ccc(Cl)cc2)cc1F")
"89 µM"
>>> reported_result("O=C1CCc2ccc(OCc3cccc(Br)c3)cc2N1")
"49.2 µM"
>>> reported_result("CC(=O)c1ccc(OCc2cccc(F)c2)cc1O")
"> 100 µM"
>>> reported_result("O=c1ccoc2ccc(OCc3ccc(F)cc3)cc12")
"13.6 µM"
>>> reported_result("CC1(C)CC(=O)c2ccc(OCc3ccc(Cl)cc3)cc2O1")
"> 100 µM"
>>> reported_result("CC(=O)c1ccc(OCc2cccc(F)c2)cc1F")
"> 100 µM"
>>> reported_result("O=C1CCCc2cc(OCc3ccc(F)cc3)ccc21")
"1.29 µM"
>>> reported_result("O=c1ccoc2ccc(OCc3ccc(Cl)cc3)cc12")
"4.52 µM"
>>> reported_result("CC(=O)c1ccc(OCc2cccc(Cl)c2)cc1F")
"> 100 µM"
>>> reported_result("O=c1ccoc2cc(OCc3cccc(Cl)c3)ccc12")
"23.6 µM"
>>> reported_result("CC(=O)c1ccc(OCc2ccc(Cl)cc2)cc1O")
"25.3 µM"
>>> reported_result("O=C1OCc2cc(OCc3ccc(Cl)cc3)ccc21")
"3.61 µM"
>>> reported_result("O=C1CCc2ccc(OCc3cccc(Cl)c3)cc2N1")
"> 100 µM"

---

# reported viability at 24 h, 100 µM; entries follow
# test_details: Cytotoxicity against rat PC12 cells assessed as cell survival at 100 uM after 24 hrs by MTT assay relative to control
# Format: toxicity, PC-12
# condition_set: read-out: Survival
property_label: viability at 24 h, 100 µM (%)

>>> reported_result("CC(=O)c1ccc(OCc2ccc(F)cc2)cc1F")
106
>>> reported_result("O=C1CCCc2cc(OCc3ccc(Cl)cc3)ccc21")
91.2
>>> reported_result("CC(=O)c1ccc(OCc2ccc(F)cc2)cc1")
105
>>> reported_result("CC1(C)CC(=O)c2ccc(OCc3ccc(F)cc3)cc2O1")
96.2

---

# reported viability at 24 h, 100 µM; entries follow
# test_details: Cytotoxicity against rat PC12 cells assessed as cell survival at 100 uM after 24 hrs by MTT assay relative to control
# Assay type: toxicity, PC-12
# condition_set: read-out: Survival
property_label: viability at 24 h, 100 µM (%)

>>> reported_result("CC1(C)CC(=O)c2ccc(OCc3ccc(Cl)cc3)cc2O1")
110
>>> reported_result("C#CCN[C@@H]1CCc2ccccc21 [RASAGILINE]")
86.9
>>> reported_result("CC(=O)c1ccc(OCc2cccc(Cl)c2)cc1O")
110
>>> reported_result("O=C1CCCc2cc(OCc3ccc(F)cc3)ccc21")
83.3
>>> reported_result("CC(=O)c1ccc(OCc2ccc(Cl)cc2)cc1O")
109
>>> reported_result("CC(=O)c1cccc(OCc2ccc(Br)cc2)c1")
122
>>> reported_result("O=C1CCc2ccc(OCc3cccc(Cl)c3)cc2N1")
76.1
>>> reported_result("Cc1c(C)c2ccc(OCc3ccc(F)c(F)c3)cc2oc1=O")
106
>>> reported_result("O=c1ccoc2ccc(OCc3ccc(Cl)cc3)cc12")
85
>>> reported_result("CC(=O)c1ccc(OCc2cccc(F)c2)cc1O")
107
>>> reported_result("CC(=O)c1ccc(OCc2cccc(Cl)c2)cc1F")
108
>>> reported_result("CC(=O)c1cccc(OCc2ccc(Cl)cc2)c1")
117
>>> reported_result("CC(=O)c1ccc(OCc2ccc(F)cc2)cc1O")
101
>>> reported_result("O=C1CCOc2cc(OCc3ccc(Cl)cc3)ccc21")
98.6
>>> reported_result("O=c1ccoc2cc(OCc3ccc(F)cc3)ccc12")
72.9
>>> reported_result("O=C1CCc2ccc(OCc3cccc(Br)c3)cc2N1")
80.2
>>> reported_result("Cc1c(C)c2ccc(OCc3ccc(Cl)cc3)cc2oc1=O")
106
>>> reported_result("O=c1ccoc2cc(OCc3cccc(Cl)c3)ccc12")
73.5
>>> reported_result("CC(=O)c1ccc(OCc2cccc(Cl)c2)cc1")
118
>>> reported_result("O=C1OCc2cc(OCc3ccc(Cl)cc3)ccc21")
86.7
>>> reported_result("O=c1ccoc2cc(OCc3ccc(C(F)(F)F)cc3)ccc12")
81.2
>>> reported_result("CC(=O)c1ccc(OCc2cccc(F)c2)cc1F")
118
>>> reported_result("O=c1ccoc2ccc(OCc3ccc(F)cc3)cc12")
85.2
>>> reported_result("O=C1OCc2cc(OCc3ccc(F)cc3)ccc21")
64.9
>>> reported_result("Cc1c(C)c2ccc(OCc3cccc(F)c3)cc2oc1=O")
109
>>> reported_result("CC(=O)c1ccc(OCc2ccc(Cl)cc2)cc1F")
105
>>> reported_result("O=C1CCOc2cc(OCc3ccc(F)cc3)ccc21")
93.1
